# Kd annotations
biological target: MsbA (Escherichia coli); construct: full length, TEV-cleavable N-terminal His6 tag cut (intact native N-terminus MHND...), expressed in E. coli BL21-AI, delipidated, homodimer in C10E5; assay: biochemical; set-up: native mass spectrometry lipid titration of ADP-trapped open outward-facing MsbA, sequential lipid binding model; settings: first lipid; MsbA trapped with ADP and VO4, open outward-facing; read-out: KD1
Sequence (P60752 whole entry): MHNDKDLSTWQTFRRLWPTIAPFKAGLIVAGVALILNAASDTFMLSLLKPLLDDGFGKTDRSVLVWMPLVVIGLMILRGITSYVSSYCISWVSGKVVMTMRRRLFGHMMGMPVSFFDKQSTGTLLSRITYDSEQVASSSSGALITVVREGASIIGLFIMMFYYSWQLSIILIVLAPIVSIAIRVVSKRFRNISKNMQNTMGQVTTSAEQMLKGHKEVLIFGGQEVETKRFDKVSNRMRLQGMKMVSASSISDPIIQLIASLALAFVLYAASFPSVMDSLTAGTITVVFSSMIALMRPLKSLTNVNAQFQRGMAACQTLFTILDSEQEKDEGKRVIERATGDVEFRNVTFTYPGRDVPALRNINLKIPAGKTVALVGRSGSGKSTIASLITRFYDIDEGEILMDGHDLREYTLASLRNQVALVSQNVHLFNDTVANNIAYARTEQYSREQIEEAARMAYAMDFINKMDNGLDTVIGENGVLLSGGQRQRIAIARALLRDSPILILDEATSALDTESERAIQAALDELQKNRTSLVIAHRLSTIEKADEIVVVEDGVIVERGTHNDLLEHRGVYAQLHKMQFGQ
quantity measured: Kd

molecule	reported value
CCCCCCCC/C=C\CCCCCCCC(=O)O[C@H](COC(=O)CCCCCCCCCCCCCCC)COP(=O)(O)O [POPA]	2.2 µM
CCCCCCCC/C=C\CCCCCCCC(=O)O[C@H](COC(=O)CCCCCCCCCCCCCCC)COP(=O)([O-])OCC[N+](C)(C)C [POPC]	15.1 µM
CCCCCCCC/C=C\CCCCCCCC(=O)O[C@H](COC(=O)CCCCCCCCCCCCCCC)COP(=O)(O)OC[C@H](N)C(=O)O [POPS]	2.3 µM
CCCCCCCC/C=C\CCCCCCCC(=O)O[C@H](COC(=O)CCCCCCCCCCCCCCC)COP(=O)(O)OCC(O)CO (stereo partly shown) [POPG]	2.6 µM
